System: SK-MEL-28 melanoma
Test: NCI-60 one-dose screen, 48 h
Settings: 10 µM unless noted
This is part of a sample that, as a whole, favours compounds with a hit. Of some 83,000 tested, about 20% had one in any assay. Active and inactive are the calls of the source. Rule for the calls: active = growth percent below 10; inactive = the rest.
Select the correct class. Options are yes (1) for active, no (0) for inactive and nothing else.

Example entries begin here.
COc1ccc(/C=N\NC(=O)CN2CCN(c3cc4c(cc3F)c(=O)c(C(=O)N/N=C/c3ccc(OC)c(OC)c3)cn4C3CC3)CC2)cc1OC | yes (1)
COc1cccc(-c2nc3sccn3c2-c2ccnc(NCCCNS(=O)(=O)c3ccc(C(F)(F)F)cc3)c2)c1 | no (0)
CC(=O)Nc1ccc(/C=C/C(=O)c2ccccc2)cc1 | no (0)
CN(C[C@H]1Cc2c(cccc2N2CCN(c3ncccn3)CC2)CN1)[C@H]1CCCc2cccnc21 | no (0)
O=C(O)c1cn(C2CC2)c2cc(N3CCN(C(=O)/C=C/c4ccc(Cl)cc4)CC3)c(F)cc2c1=O | no (0)
COc1ccc2c(c1)NC1=C(C(=O)OC1)C2c1cc(OC)c2c(c1)OCO2 (stereo not given) | no (0)

Could you please tell me the result logged for COc1ccncc1S(=O)(=O)NC(=O)Nc1ccc(Cl)c(Cl)c1 in this assay?
no (0)

Could you please tell me the result logged for NC(=S)N/N=C(/CCN1CCCC1)CC(C1=C(O)C2=CCCCC2OC1=O)c1ccccc1 (stereo not given) in this assay?
no (0)

Could you please tell me the result logged for COc1cc(Nc2ncccc2C(=O)NCc2cn(Cc3cccc(Oc4ccccc4)c3)nn2)cc(OC)c1 in this assay?
no (0)

Could you please tell me the result logged for Clc1ccc2c(NC3CCC(NC4CCCCC4)CC3)ccnc2c1 (stereo not given) in this assay?
yes (1)

Could you please tell me the result logged for CCCCCCCCCCCCNC(=O)[C@H]1CSC(c2cc3ccccc3s2)N1 (stereo not given in full) in this assay?
yes (1)

Could you please tell me the result logged for CC1=NC2=CC=CC3=NC(C(Cl)(Cl)Cl)=NC(=N1)N23 in this assay?
no (0)

* * *

Tested on: SK-MEL-2 melanoma
Assay: NCI-60 one-dose screen, 48 h
Details: 10 µM unless noted
About 83,000 compounds went through this panel and 20% of them were active in at least one assay; those are over-represented in the sample as a whole. The source made the active and inactive calls. Rule for the calls: active = growth percent below 10; inactive = the rest.
Select the correct class. Options are active, inactive and nothing else.

COc1ccc(-c2cc(-c3ccccc3)nc(SCCCC(=O)NO)n2)cc1OC | active
Cc1cc(C)n(-c2nnc3n2N=C(c2ccc(-c4ccccc4)cc2)CS3)n1 | active
Cc1c(C(=N)C(C#N)C#N)c(=N)oc2c1ccc1ccccc12 | inactive
COC1=C(OC)C(=O)C(CCCCCCCCCC[P+](c2ccccc2)(c2ccccc2)c2ccccc2)=C(C)C1=O | active
COc1ccc2c(c1)[nH]c(=O)c1c3cc(OC)ccc3cn21 | inactive
CC1=NC2=CC=CC3=NC(C(Cl)(Cl)Cl)=NC(=N1)N23 | inactive
Nc1nc(-c2ccccc2)c(CCCOc2ccc(NC(=O)CBr)cc2)c(=O)[nH]1 | inactive
COP(=O)(OC)/C(=N\NS(=O)(=O)c1ccc(C)cc1)c1ccccc1 | inactive

Could you please tell me the result logged for O=C(Nc1cccc(-n2cc(-c3ccncc3)c(-c3ccc(Cl)c(O)c3)n2)c1)Nc1ccc(Cl)c(Cl)c1 in this assay?
active

Could you please tell me the result logged for Cc1[nH]c2ccc(F)cc2c1CCNC(=O)C1CCN(C(=O)c2ccccc2)CC1 in this assay?
inactive
